# Tested on: L929 cells
# EXPERIMENT: Unspecific cytotoxicity assay on L929 fibroblasts (resazurin)
# Format: cell-based
# SETUP_CONDITIONS: 72 h, mean ± SD, n = 3
MEASUREMENT_KIND: CC50 (µM)

1. Oc1ccc(/C=N/NC(=S)Nc2cccc3ccccc23)cc1 : 31.1
2. Oc1ccc(/C=N/NC(=S)Nc2cccc3ccccc23)cc1O : 28.8

----------
# Test system: Vero cells
# EXPERIMENT: Unspecific cytotoxicity assay in Vero cells (resazurin)
# Type: cell-based, African green monkey
# SETUP_CONDITIONS: African green monkey; Vero cells, 24 h; brackets: 95% confidence interval
MEASUREMENT_KIND: CC50 at 24 h (µM)

1) Oc1ccc(/C=N/NC(=[Se])Nc2ccc(Br)cc2)cc1O [Compound 74] : 114

----------
Readings of IC50 for the listed compounds
# System: Trypanosoma cruzi CL-B5 (DTU TcVI) epimastigotes
# EXPERIMENT: CL-B5 lacZ epimastigote susceptibility assay (CPRG)
# Type: cell-based
# SETUP_CONDITIONS: Trypanosoma cruzi; T. cruzi CL-B5 lacZ epimastigotes, 72 h, mean ± SD, n = 3
MEASUREMENT_KIND: IC50 (µM)

1) O=C(Cn1ccnc1[N+](=O)[O-])NCc1ccccc1 [Benznidazole, benznidazole, reference compound] : 25.3
2) NNC(=S)Nc1ccc(F)cc1 : 58.8
3) O=[N+]([O-])c1ccc(NC(=S)N/N=C/c2ccc(O)cc2)cc1 : 76.4
4) NNC(=S)Nc1ccc(Cl)cc1 : 44.2
5) Oc1ccc(/C=N/NC(=S)Nc2ccc(F)cc2)cc1O : 97.4
6) COc1ccc(/C=N/NC(=S)Nc2ccc(Cl)cc2)cc1 : 30.5
7) O=[N+]([O-])c1cccc(NC(=S)N/N=C/c2ccc(O)c(O)c2)c1 : 33.8
8) Oc1ccc(/C=N/NC(=S)Nc2ccc(I)cc2)cc1 : 22.8

----------
# System: L929 cells
# EXPERIMENT: Unspecific cytotoxicity assay on L929 fibroblasts (resazurin)
# Assay type: cell-based
# SETUP_CONDITIONS: mouse, mean ± SD, n = 3
MEASUREMENT_KIND: CC50 at 72 h (µM)

1) O=[N+]([O-])c1ccc(NC(=S)N/N=C/c2ccc(O)c(O)c2)cc1 [Compound 61] : 5.37
2) O=[N+]([O-])c1ccc(NC(=S)N/N=C/c2ccc(O)cc2)cc1 [Compound 59] : 29.4
3) Oc1ccc(/C=N/NC(=S)Nc2ccccc2)cc1O [Compound 38] : 45.2

----------
# Tested on: Trypanosoma cruzi CL-B5 (DTU TcVI) epimastigotes
# EXPERIMENT: CL-B5 lacZ epimastigote susceptibility assay (CPRG)
# Format: cell-based
# SETUP_CONDITIONS: T. cruzi CL-B5 lacZ epimastigotes, 72 h, mean ± SD, n = 3
pIC50: −log10 of the molar value.
Readings of pIC50 for the listed compounds
MEASUREMENT_KIND: pIC50

1) Oc1ccc(/C=N/NC(=S)Nc2cccc3ccccc23)cc1 : 4.27
2) NNC(=S)Nc1cccc2ccccc12 : 4.54
3) Oc1ccc(/C=N/NC(=S)Nc2cccc3ccccc23)cc1O : 4.15

----------
# Tested on: Trypanosoma cruzi Y (DTU TcII) epimastigotes
# EXPERIMENT: Y strain epimastigote susceptibility assay (resazurin)
# Type: cell-based
# SETUP_CONDITIONS: Trypanosoma cruzi; T. cruzi Y strain epimastigotes, 48 h, mean ± SD, n = 3
Label t when IC50 < 60 µM; otherwise f.

1. NNC(=S)Nc1ccc(F)cc1 : f
2. COc1ccc(/C=N/NC(=S)Nc2ccccc2)cc1 : f
3. COc1ccc(/C=N/NC(=S)Nc2ccc(OC)cc2)cc1 : t
4. COc1ccc(/C=N/NC(=S)Nc2cccc([N+](=O)[O-])c2)cc1 : f
5. O=C(Cn1ccnc1[N+](=O)[O-])NCc1ccccc1 [Benznidazole, benznidazole, reference compound] : t

----------
# Tested on: L929 cells
# EXPERIMENT: Unspecific cytotoxicity assay on L929 fibroblasts (resazurin)
# Type: cell-based
# SETUP_CONDITIONS: mouse, mean ± SD, n = 3
MEASUREMENT_KIND: CC50 at 72 h (µM)

1. Oc1ccc(/C=N/NC(=S)Nc2ccc(Br)cc2)cc1O [Compound 49] : 16.7
2. Cc1ccc(NC(=S)N/N=C/c2ccc(O)c(O)c2)cc1 [Compound 41] : 20
3. Oc1ccc(/C=N/NC(=S)Nc2ccc(I)cc2)cc1 [Compound 50] : 41.4

----------
Readings of pIC50 for the listed compounds
# Tested on: Trypanosoma cruzi CL-B5 (DTU TcVI) epimastigotes
# EXPERIMENT: CL-B5 lacZ epimastigote susceptibility assay (CPRG)
# Type: cell-based
# SETUP_CONDITIONS: Trypanosoma cruzi; T. cruzi CL-B5 lacZ epimastigotes, 72 h, mean ± SD, n = 3
pIC50: −log10 of the molar value.
MEASUREMENT_KIND: pIC50

1. NNC(=S)Nc1ccccc1[N+](=O)[O-] [Compound 28] : 4.36
2. NNC(=S)Nc1ccc(I)cc1 [Compound 27] : 4.30
3. Oc1ccc(/C=N/NC(=S)Nc2ccc(I)cc2)cc1O [Compound 52] : 4.16
4. COc1ccc(/C=N/NC(=S)Nc2ccc(OC)cc2)cc1 [Compound 43] : 4.57
5. Oc1ccc(/C=N/NC(=S)Nc2ccc(Br)cc2)cc1O [Compound 49] : 3.98
6. O=[N+]([O-])c1cccc(NC(=S)N/N=C/c2ccc(O)cc2)c1 [Compound 56] : 4.43
7. COc1ccc(NC(=S)NN)cc1 [Compound 23] : 4.27
8. Oc1ccc(/C=N/NC(=S)Nc2ccccc2)cc1O [Compound 38] : 4.81
9. Cc1ccc(NC(=S)N/N=C/c2ccc(O)c(O)c2)cc1 [Compound 41] : 3.93

----------
# Test system: L929 cells
# EXPERIMENT: Unspecific cytotoxicity assay on L929 fibroblasts (resazurin)
# Format: cell-based
# SETUP_CONDITIONS: mouse, mean ± SD, n = 3
Label Satisfied when CC50 at 72 h < 70 µM; otherwise Not satisfied.

1. COc1ccc(/C=N/NC(=S)Nc2cccc([N+](=O)[O-])c2)cc1 : Not satisfied
2. COc1ccc(/C=N/NC(=S)Nc2ccc(F)cc2)cc1 : Not satisfied
3. COc1ccc(/C=N/NC(=S)Nc2ccc(I)cc2)cc1 : Not satisfied
4. COc1ccc(NC(=S)NN)cc1 : Not satisfied
5. COc1ccc(/C=N/NC(=S)Nc2ccc(Br)cc2)cc1 : Not satisfied
6. COc1ccc(NC(=S)N/N=C/c2ccc(O)cc2)cc1 : Satisfied
7. COc1ccc(/C=N/NC(=S)Nc2ccccc2)cc1 : Not satisfied
8. NNC(=S)Nc1ccc(I)cc1 : Satisfied
9. NNC(=S)Nc1cccc([N+](=O)[O-])c1 : Not satisfied
10. Oc1ccc(/C=N/NC(=S)Nc2ccc(Br)cc2)cc1 : Satisfied
11. NNC(=S)Nc1ccccc1[N+](=O)[O-] : Not satisfied
12. Oc1ccc(/C=N/NC(=S)Nc2ccccc2)cc1 : Satisfied
13. NNC(=S)Nc1ccc(F)cc1 : Not satisfied
14. COc1ccc(/C=N/NC(=S)Nc2ccc([N+](=O)[O-])cc2)cc1 : Not satisfied
